target: SARS-CoV-2 S1-RBD fused to human Fc (S1-RBD-Fc) (SARS-CoV-2 Wuhan; human); experiment: SPR, antigen on chip
Kindly apply the following: t if Kd is less than 2 nM, f in every other case.

INSERT INTO results (binder, discrete_label) VALUES
  ('NRCoV2-14 VHH (VHH) VHH: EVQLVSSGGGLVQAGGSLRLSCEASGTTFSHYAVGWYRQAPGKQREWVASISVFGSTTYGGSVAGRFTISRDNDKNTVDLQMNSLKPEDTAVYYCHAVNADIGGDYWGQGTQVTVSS', 'f'),
  ('NRCoV2-06 VHH (VHH) VHH: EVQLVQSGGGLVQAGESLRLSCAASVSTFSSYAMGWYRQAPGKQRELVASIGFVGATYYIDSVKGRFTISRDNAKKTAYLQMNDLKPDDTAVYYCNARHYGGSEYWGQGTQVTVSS', 'f'),
  ('NRCoV2-15 VHH (VHH) VHH: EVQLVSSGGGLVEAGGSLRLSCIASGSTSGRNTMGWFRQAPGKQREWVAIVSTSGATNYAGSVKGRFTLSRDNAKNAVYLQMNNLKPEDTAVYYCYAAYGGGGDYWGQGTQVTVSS', 't'),
  ('NRCoV2-02 VHH (VHH) VHH: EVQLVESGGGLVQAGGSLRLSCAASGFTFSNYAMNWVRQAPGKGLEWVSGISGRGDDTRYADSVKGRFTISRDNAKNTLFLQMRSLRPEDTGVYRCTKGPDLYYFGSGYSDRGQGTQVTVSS', 't'),
  ('NRCoV2-05 VHH (VHH) VHH: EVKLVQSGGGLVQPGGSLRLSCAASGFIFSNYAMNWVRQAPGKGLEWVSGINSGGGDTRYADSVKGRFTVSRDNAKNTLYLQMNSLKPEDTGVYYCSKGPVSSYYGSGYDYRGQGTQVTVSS', 'f');

Bench note: check whether NRCoV2-07 VHH (VHH) VHH: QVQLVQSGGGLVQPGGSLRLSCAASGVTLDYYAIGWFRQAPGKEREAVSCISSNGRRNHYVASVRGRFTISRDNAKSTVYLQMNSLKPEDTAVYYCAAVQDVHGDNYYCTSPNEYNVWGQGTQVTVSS shows Kd below 2 nM t

Bench note: check whether NRCoV2-04 VHH (VHH) VHH: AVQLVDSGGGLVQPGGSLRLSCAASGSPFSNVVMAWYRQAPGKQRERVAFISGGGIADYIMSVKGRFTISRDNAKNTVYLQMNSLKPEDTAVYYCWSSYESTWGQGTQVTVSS shows Kd below 2 nM f

Bench note: check whether NRCoV2-10 VHH (VHH) VHH: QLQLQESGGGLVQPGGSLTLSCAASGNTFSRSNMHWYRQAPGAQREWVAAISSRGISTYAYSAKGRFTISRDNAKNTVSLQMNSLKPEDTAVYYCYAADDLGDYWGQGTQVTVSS shows Kd below 2 nM t
